Hi there, I'd appreciate the recorded pKi for every entry that follows.
# targetOfAssay: hDOR (Homo sapiens, UniProt P41143)
# Sequence (P41143 whole entry): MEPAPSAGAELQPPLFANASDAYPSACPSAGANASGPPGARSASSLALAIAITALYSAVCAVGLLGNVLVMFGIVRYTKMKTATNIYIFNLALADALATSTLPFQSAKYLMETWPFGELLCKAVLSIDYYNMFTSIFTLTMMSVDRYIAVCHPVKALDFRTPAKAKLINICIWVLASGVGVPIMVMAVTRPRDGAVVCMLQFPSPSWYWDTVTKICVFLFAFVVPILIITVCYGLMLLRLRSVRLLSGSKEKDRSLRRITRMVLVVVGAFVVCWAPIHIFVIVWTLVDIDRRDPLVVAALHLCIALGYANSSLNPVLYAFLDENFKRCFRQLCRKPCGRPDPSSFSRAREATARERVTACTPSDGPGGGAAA
# assayOverview: Radioligand binding at hDOR
# settings: read-out: Ki ± SEM, n ≥ 3
pKi: −log10 of the molar value.

Ask: // lookup pKi | system=hDOR (Homo sapiens, UniProt P41143) | key= CC[C@H]1CN2CCc3c([nH]c4cccc(OC)c34)[C@@H]2C[C@@H]1/C(=C\OC)C(=O)OC [speciogynine]
Result: < 5.00

Ask: // lookup pKi | system=hDOR (Homo sapiens, UniProt P41143) | key= CC[C@@H]1CN2CCc3c([nH]c4cccc(OC)c34)[C@H]2C[C@@H]1/C(=C\OC)C(=O)OC [speciociliatine]
Result: < 5.00

Ask: // lookup pKi | system=hDOR (Homo sapiens, UniProt P41143) | key= C=C[C@H]1CN2CCc3c([nH]c4cccc(OC)c34)[C@@H]2C[C@@H]1/C(=C\OC)C(=O)OC [paynantheine]
Result: < 5.00

Ask: // lookup pKi | system=hDOR (Homo sapiens, UniProt P41143) | key= CC[C@@H]1CN2CC[C@@]3(O)C(=Nc4cccc(OC)c43)[C@@H]2C[C@@H]1/C(=C\OC)C(=O)OC [Compound 7-OH, 7-hydroxymitragynine]
Result: 6.66

---

# targetOfAssay: human mu-opioid receptor (hMOR) (Homo sapiens)
# Sequence (P35372 whole entry): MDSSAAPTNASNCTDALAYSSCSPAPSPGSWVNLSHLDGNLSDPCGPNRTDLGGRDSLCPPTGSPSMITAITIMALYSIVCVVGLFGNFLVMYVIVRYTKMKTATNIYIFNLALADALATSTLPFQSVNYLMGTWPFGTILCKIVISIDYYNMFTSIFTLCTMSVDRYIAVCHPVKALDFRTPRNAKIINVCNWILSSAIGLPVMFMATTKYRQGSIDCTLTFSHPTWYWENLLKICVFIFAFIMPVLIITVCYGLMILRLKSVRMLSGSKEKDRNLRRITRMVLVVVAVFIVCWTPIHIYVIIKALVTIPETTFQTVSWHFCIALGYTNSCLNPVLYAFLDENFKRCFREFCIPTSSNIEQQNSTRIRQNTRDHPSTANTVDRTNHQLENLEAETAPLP
# assayOverview: G protein BRET functional assay at hMOR
# settings: read-out: EC50 ± SEM (agonist activity), G protein BRET, HEK cells, mean ± SEM, n ≥ 3
endpointName: EC50
Dear colleague, please send the value followed by its unit.

Ask: Consider the compound "CC[C@@H]1CN2CCc3c([nH]c4cccc(O)c34)[C@@H]2C[C@@H]1/C(=C\OC)C(=O)OC" and give its measured EC50.
Result: 0.681 µM

Ask: Consider the compound "CO/C=C(/C(=O)OC)[C@@H]1CCN2CCc3c([nH]c4cccc(OC)c34)[C@@H]2C1" and give its measured EC50.
Result: 12 µM

---

# targetOfAssay: hMOR (Homo sapiens, UniProt P35372)
# Sequence (P35372 whole entry): as above
# assayOverview: Radioligand binding at hMOR
# settings: read-out: Ki ± SEM, n ≥ 3
endpointName: Ki (nM)
Expressed in nM, but write only the number.

Ask: Consider the compound C=C[C@H]1CN2CCc3c([nH]c4cccc(OC)c34)[C@@H]2C[C@@H]1/C(=C\OC)C(=O)OC [paynantheine] and give its measured Ki.
Result: 410

---

# targetOfAssay: human mu-opioid receptor (hMOR) (Homo sapiens)
# assayOverview: G protein BRET functional assay at hMOR
# Format: cell-based
# settings: read-out: IC50 ± SEM (antagonist activity), inhibition of a reference agonist, n ≥ 3
endpointName: IC50 (nM)
Expressed in nM, but write only the number.

Ask: Consider the molecule "C=C[C@H]1CN2CCc3c([nH]c4cccc(OC)c34)[C@@H]2C[C@@H]1/C(=C\OC)C(=O)OC" and give its measured IC50.
Result: 2200

---

# targetOfAssay: hDOR (Homo sapiens)
# assayOverview: G protein BRET functional assay at hDOR
# settings: read-out: IC50 ± SEM (antagonist activity), inhibition of a reference agonist
endpointName: IC50

Ask: Consider the molecule CC[C@H]1CN2CCc3c([nH]c4cccc(OC)c34)[C@@H]2C[C@@H]1/C(=C\OC)C(=O)OC [speciogynine] and give its measured IC50.
Result: > 10 µM

Ask: Consider the molecule CC[C@@H]1CN2CC[C@@]3(O)C(=Nc4cccc(OC)c43)[C@@H]2C[C@@H]1/C(=C\OC)C(=O)OC [Compound 7-OH, 7-hydroxymitragynine] and give its measured IC50.
Result: > 10 µM

Ask: Consider the molecule CC[C@@H]1CN2CCc3c([nH]c4cccc(OC)c34)[C@H]2C[C@@H]1/C(=C\OC)C(=O)OC [speciociliatine] and give its measured IC50.
Result: > 10 µM

Reference for the values: paper PMC5189718
